Test: soluble on expression in E. coli; label from the status in PepcDB or PDB records
Endpoint: soluble on expression in E. coli

| Construct Sequence | Measured Result |
| --- | --- |
| MGSDKIHHHHHHMIIAGAVPIKGMELIKGPVKLNKDTFEIKNKELPISMGTCALLGAAFKTLEYFGKEDELTFITAGDVGEGDGSLEIYEELHEINDDLTIIHYIKPKISEIIKVDFSKNVIGDAGGMYAGKAAGIGNKFHMFFPDVGELAFLADENSSHPAYVRGFISEIDDQEIPKLIKMAYTQKMPKNMVVKGSKDHIVNEGNIIETVEYPKFEAMECIGGTGDTLTGIASSLIACGFKTEKAGILGCKLNRKLGELVKPRPDTQIYEIIQKIPEALKEFDL | not soluble |
| SEAQQKNYTFRCLQMSSFANRSWSRTDSVVWLGDLQTHRWSNDSATISFTKPWSQGKLSNQQWEKLQHMFQVYRVSFTRDIQELVKMMSPKEDYPIEIQLSAGCEMYPGNASESFLHVAFQGKYVVRFWGTSWQTVPGAPSWLDLPIKVLNADQGTSATVQMLLNDTCPLFVRGLLEAGKSDLEKQEKPVAWLSSVPSSAHGHRQLVCHVSGFYPKPVWVMWMRGDQEQQGTHRGDFLPNADETWYLQATLDVEAGEEAGLACRVKHSSLGGQDIILYWGSLHHILDAQKMVWNHRHHHHHH | soluble |
| MGSDKIHHHHHHMNLRQLEYFVTLSETLSFTKTAQKFFISQTAVTKQIKLLENTLDTKLFNRNKHYVELTPAGNVFLMEAKAILLRVEEATERVHLTTIGFVGLLRIGFIKGYEKTAFSDLIFQLYNKYPNISITFFRGTESELYEKVLNSELDIVFNSVKPKNIDKTLEMKLIDKYPLKVVVHPTHPLAARKSVRFEELRGETIFKYNDGQDIEVTLLMVSANMGIAVMPSYCVRYLSQSQNLMIIAVENNNFYVDIAAVWNKENNNPALLRVLQIIKEAEQ | not soluble |
| MKIAGLKQLNTALKEAASGGFSRQASRWLEECGQDFLEIVQSELISTQTIDTEKLLSSFEKGAEDNLWIVQSGGLSLEVGTQLDYASFLNDGHWTSKQDVRWVPGRFQGSRFIYDPAASTGMALKRKWIPGTGYWDHALLLYEQLFEKSLESKLRQWLKKLLEHHHHHH | soluble |
| MGSDKIHHHHHHAASITLPSGYTKNAVIKWNQTGKASKALINASKKGMMENTNSDAGSDNTLVNVTKLTNSQKVELSKYTLSLINSARSQLGKKPWTYRSGALRFADRVANQYYTHNKSCWDPDHYVAGILRAAKASGLNSNAGQVYEDEAGLPISSQYGSNLRTMSVLKNQIYFNVKQMLFGGFAGSDSQMNDSSRYTEWEHAGDLLGCRTKNYDAKTKYFGVSFSGLKDDQSKISVHMIGVAKRYIQNYKKFNH | not soluble |
| MLQPPHQSLQVAAVPAQRAPVRDRDQDAPWHTEAVCRRDEAGLFFAPSKEPTAARLSREEAAKRVCARCPVMVECREHALLQPEPYGVWGGLTAAERRVVLARRRRRDVELKKAARGTIAAAG | not soluble |

###

Assay: soluble on expression in E. coli; label from the status in PepcDB or PDB records
Endpoint: soluble on expression in E. coli

| Construct Sequence | Measured Result |
| --- | --- |
| MQKVRSDIMTHRGSHYDLGVKTALWLQTTPLLKNRNKEWRKRIPRFDIDVKETYDIFQIYSPQIWEEIIGMQDVLNLPTKQMILNFGHYRFTDLKDSGCTVYKGRDFLVRNYDYHPATYDGRYLLFQPNDGGLSQIGPTSRVTGRMDGMNEYGLVMAYNFMHRKKPANGFVCYMVGRLILENCKNVTEAIKFLKEVPHRSSFSYILMDRHSNYAIVEVTPRSIDVRYEHICTNHFELLTHENRNYTRESKERLNRVINKTTPSTNKDIAFKLFNDPQYEIYSNLFKSWSGTIHTSLYEPNSLIAWMALGQNSHPTSINFSNWLKGKKLNINYFEGEIDTPLTFATYLEHHHHHH | not soluble |
| IAQQTEETVVEVETVTGFGANDAILDIRSIDEQEDKPLKVEGVEVVSLPFYKLSTKFGDLDQSKTWLLWCERGVMSRLQALYLREQGFSNVKVYR | not soluble |
| MILTPIRRYGAMILMLLTLVFSSEVLAKTHTTTASQKSHLTKASNKQVSSKQEYSRNSAKSSSLPDLRKYPSGTSRKKAFLRTVMPYITSQNAAITAERNWLISKQYQGQWSPAERARLKDIAKRYKVKWSGNTRKIPWNTLLERVDIIPTSMVATMAAAESGWGTSKLARNNNNLFGMKCMKGRCTNAPGKVKGYSQFSSVKESVSAYVTNLNTHPAYSSFRKSRAQLRKADQEVTATAMIHKLKGYSTKGKSYNNYLFAMYQDNQRLIAAHM | not soluble |

###

Assay: soluble on expression in E. coli; label from the status in PepcDB or PDB records

| Construct Sequence | soluble on expression in E. coli |
| --- | --- |
| MGSDKIHHHHHHMRDQADRLREMALNLKQEIEAEIRRDLRYSRVVVISSGKGGVGKSTLALNLSLNLCARGMKIILMDADMGLANLDVMLGLVTKFNIYHIVQQKKSMEEITISGPEGLKIIPGGSGISELANLENTELKRILVELRKLDGAYDYMIIDTGAGISKSVMNFLLAAEDIIVITTPEPTAITDAYSLVKNVAKNSFAGSIYLVVNKVANDSEGILVAEKFKLVCQKFLSCEIKPLGHIVNEPLIGEGIRRQKAFVQIYPRSTATRNINTIVDRLIEASGQKSPGLESKRGGIRYFIEKIAGLVK | not soluble |
| MGSDKIHHHHHHMSSNSRVYGIVPSKRLGRSLGVSPIPFKTCTYSCVYCQLGRTTNFTVKRQTFFPLKVFEEELKGFVKRHRYDFDVVSIVGEGEPTLYTPLDALIDLCKSITGKPVVLITNGSLFWSEKVRKEAKLSDIIMPTLSAWDEKSFRTIHKPHKNLSFQKVFEGLKKFRREYSGEIWLEVMLVKGLNDFALEELKEKISQVESDRVYVNVPVRPPAEGWVEPPDEETIEKAKELFNAASIETPAASRFIAAGEGIDAVLNVIKRHPMNEEEVRDLLTSQKIDPKPVLEKLRSCKNVKIIEYSGRRYYRYTTAE | not soluble |
| GMSAQAKNKLEALKAMTTVVADTGDIEAIKQFKPVDATTNPSLILKAAKLANYQHLIEEAIDWALQIKGNDKNSQTTLENVGDKLAVNIGCEVLTSIPGVISTEVDARLSFDTQATVAKARKLIRLYQDAGIDSDRILIKIASTWEGIQAAKILEAEGIHCNLTLLFHFAQAQACAEAGTTLISPFVGRILDWYKANSGQSEYSASEDPGVVSVTEIYNFYKSHGFKTIVMGASFRNTGEIEELAGCDRLTISPELLAQLEADTSPLEQKLFPIKETKDTPELLTEASFRWAMNNDPMAHDKLADGIRRFAADQVTLESMLSKKISQRS | soluble |
| MAAAALREQLNALLSSMFASGLVDEQFQQLQMLQEDGGTPGFVAEVVTLFCDDADRIISELAALLDQPIVDFDKVDAYVHQLKGSSASVGAQKVKFTCMQFRQLCQDKNRDGCIMALAVVRNEFYDLRNKFQTMLQLEQQIQAQQ | soluble |
| GMQGAGRLMQPRPDSAFVHDVRVTWGDCDPAKIAYTGHLPRFALEAIDAWWSEYHGPGGWYHLELDTNVGTPFVRLEMDFKSPVTPRHILKCHTWPTRLGTKSITFRVDGVQDGVTCFVGAFTCVFTIADQFKSQPAPDHLRALIEPHIPA | soluble |
| MILHPRPSPIAAAMYQLRDIGVDAIILHGPSGCCFRTARLLEIDGIRVFTSAMGENDFIFGAMDKLRDVIAEVLEYLKKETPKSEKYKIGIVGTCASMIIGEDLESLIDDFDDIIIPVDIHSGLVDNTVGAIRAMDGALNAGLIDYSEYERQKKMLEHHHHHH | soluble |

###

Assay: soluble on expression in E. coli; label from the status in PepcDB or PDB records

| Construct Sequence | soluble on expression in E. coli |
| --- | --- |
| MAHHHHHHMRTHKTHAYIQAHCLCDFYLTYCAGWVGAIKADGSGQPREPSNGVFGCVRDYIFHQMLDAVHGSSKVFFCDAHAAAVLNCSLRLHDLMERGVTLLEDLMAPRQPIMSSFTPYFFAVEDACVSCVVEDWMAKVPYRDVHIFALGCAPHRSPQQLPRSRIAPRVMRFKEMMLDFTATEALVFHPNMQNGLPQLLSPLSPPT | not soluble |
| MGSDKIHHHHHHMTPLAPHEASQDESAIAERIASAMPRMTPIHRRMGEFVLANPFRAATMRIDELAQAVNASIATANRFAKALGFDGYPAMRAALVRGFEATLGPVERLRSAQEQEQEQGVRGAAWIDAVFDQAIENIENTRARLDATDVEAAVEAIVGARRVLILGAGSSAFLTGLMEHGLSVCHDNVQSLALLGGPTHAARRLYTADSRDLVIALAFPRYVKDTIELARRAAARGARVLGISDGPGSPLAPVASLNLYVKAQRRFAATSEAAVLTMIEALIDAVALRTHRSAKSAAEMTEFLLPWLMQPPAALPAANPSSSGPKKS | not soluble |
